# ASSAY_REMARKS: xn = mol fraction of the nth substance listed, in the solute-free solvent
# CONDITION_LABEL: 293.15 K; x2 = 0.6
RECORDED_METRIC: solubility (g/100 g solution)

- COMPOUND: "Cc1ncc(CO)c(CO)c1O.Cl + O + CCCO"
  NUMBER: 6.02
- COMPOUND: "Cc1c(Br)c(=O)n(C2CCCC2)c2nc(Cl)ncc12 + C1CCOC1 + CCO"
  NUMBER: 4.35
- COMPOUND: "CCOC(=O)OC1=C(c2cc(C)ccc2C)C(=O)NC12CCC(OC)CC2 (stereo not given) + CCO + O"
  NUMBER: 5.78
- COMPOUND: "CCOC(=O)OC1=C(c2cc(C)ccc2C)C(=O)NC12CCC(OC)CC2 (stereo not given) + CC(C)O + O"
  NUMBER: 6.01
- COMPOUND: "CCOC(=O)OC1=C(c2cc(C)ccc2C)C(=O)NC12CCC(OC)CC2 (stereo not given) + CO + O"
  NUMBER: 2.8

----------
# ASSAY_REMARKS: xn = mol fraction of the nth substance listed, in the solute-free solvent
# CONDITION_LABEL: 313.15 K; x2 = 0.9
RECORDED_METRIC: solubility (g/100 g solution)

- MOLECULE: "NC(=O)NC1NC(=O)NC1=O (stereo not drawn) + O + CO"
  NUMBER: 1.05
- MOLECULE: "Cc1ncc(CO)c(CO)c1O.Cl + O + CC(C)O"
  NUMBER: 23.9
- MOLECULE: "O=C(NC(C(=O)O)c1ccccc1)OCc1ccccc1 (stereo not drawn) + CCO + O"
  NUMBER: 40.2

----------
# ASSAY_REMARKS: xn = mol fraction of the nth substance listed, in the solute-free solvent
# CONDITION_LABEL: 313.15 K; x2 = 0.4
Form field: solubility (g/100 g solution) (one value per entry).

- COMPOUND: "Cl.NC(Cc1ccccc1)C(=O)OCc1ccccc1 (stereo not drawn) + CO + CC(C)=O"
  solubility (g/100 g solution): 4.15
- COMPOUND: "CCOC(=O)OC1=C(c2cc(C)ccc2C)C(=O)NC12CCC(OC)CC2 (stereo not drawn) + CO + O"
  solubility (g/100 g solution): 1.9
- COMPOUND: "N#CCNC(=O)c1cnccc1C(F)(F)F + CCOC(C)=O + CCO"
  solubility (g/100 g solution): 13.2

----------
# ASSAY_REMARKS: xn = mol fraction of the nth substance listed, in the solute-free solvent
# CONDITION_LABEL: 313.15 K; x2 = 0.8
Entry flag: label 1 if solubility (g/100 g solution) reaches 20; label 0 if it does not.

- COMPOUND: "Cc1ncc(CO)c(CO)c1O.Cl + O + CC(C)O"
  GROUP: "label 0"
- COMPOUND: "Cc1c(Br)c(=O)n(C2CCCC2)c2nc(Cl)ncc12 + C1CCOC1 + CCO"
  GROUP: "label 0"
- COMPOUND: "CCOc1ccccc1C(N)=O + CCO + CC#N"
  GROUP: "label 0"
- COMPOUND: "CCOC(=O)OC1=C(c2cc(C)ccc2C)C(=O)NC12CCC(OC)CC2 (stereo unspecified) + CCO + O"
  GROUP: "label 0"
- COMPOUND: "O=C(NC(C(=O)O)c1ccccc1)OCc1ccccc1 (stereo unspecified) + CCO + O"
  GROUP: "label 1"

Sourced from the CheMixHub drug solubility set
